tested on: MS2 coat protein; assay: apparent KD of MS2 coat protein; designed switch direction (-1 OFF switch, 1 ON switch): -1; higher = weaker reporter binding; details: input ligand: none
Parameter threshold = 30 nM. Response is Criterion met when apparent KD of MS2 coat protein meets or exceeds it, else Criterion not met.

macromolecule.sequence	discrete.label
UGUUGUUACGCAGGAUAUGAGGAUCACCCAUAUCAGGAUAUCGAAAGAGAACUUCUGAGGAUCACCCAGAAGGGCGGGUUAACA [pwkr exNG2 2xF5 2xFMN.38] (Eterna round: R96, puzzle: Exclusion NG 2)	Criterion not met
GCGCCUUGAGUGAGGAUAUGUUCAUAGUCGCUUGGAUAGAAGGCACAUGAGGAUCACCCAUGUAUCGGAGUUAA [Eternabot (L2) Solution 39] (Eterna round: R97, puzzle: Brourd's mod of Exclusion 4)	Criterion met
AUCGUACUAGGAUAUUCGGAAACGGACAUGAGGAUCACCCAUGUGAAUAUCCGCAGUCCAGAAGAAGGAGUGAACG [EX5 C.27] (Eterna round: R97, puzzle: Exclusion 5)	Criterion not met
CCAGUGUGAGGAUAUACAUGGAUAGUUUUAUAUAGUAUGUUACAUGAGGAUCACCCAUGUAGAAGGUAUAUCGG [15.1, 13.8 kcal, A 31%] (Eterna round: R97, puzzle: Exclusion 2)	Criterion not met
GGUAUACAUGAGGAUCACCCAUGUCAGGAUAUGGCGGCGUCGGCGAAAGCGGAGGCGGCCAGAAGGGACGAUAG [AK-MS2ROC-r4-exclusion1-6.1] (Eterna round: R97, puzzle: Exclusion 1)	Criterion met
